molecular target: HLA-B*40:01; assay: IEDB peptide-MHC binding, purified MHC/direct/fluorescence; filed as Kd, often an IC50 or EC50 that approximates it; bounds were set here for any values at or beyond the usual limits of such assays; conditions: source organism: Escherichia coli O157:H7
pKd: −log10 of the molar value.
PROPERTY_MEASURED: pKd

>>> value_reported("YLGTPNNTY")
"≤ 4.70"

---

target: HLA-A*24:02; test: IEDB peptide-MHC binding, purified MHC/competitive/radioactivity; filed as Kd, often an IC50 or EC50 that approximates it; bounds were set here for any values at or beyond the usual limits of such assays; details: source organism: Dengue virus 4 Dominica/814669/1981
pKd: −log10 of the molar value.
PROPERTY_MEASURED: pKd

>>> value_reported("FTPEARNSTF")
5.38

---

biological target: HLA-A*68:01; test: IEDB peptide-MHC binding, purified MHC/competitive/radioactivity; filed as Kd, often an IC50 or EC50 that approximates it; bounds were set here for any values at or beyond the usual limits of such assays; details: source organism: Mammarenavirus juninense
pKd: −log10 of the molar value.
PROPERTY_MEASURED: pKd

>>> value_reported("KCFGNTAVAK")
4.73
>>> value_reported("VCFHEFLSSK")
4.84

---

target: HLA-A*30:01; test: IEDB peptide-MHC binding, purified MHC/competitive/radioactivity; filed as Kd, often an IC50 or EC50 that approximates it; bounds were set here for any values at or beyond the usual limits of such assays; details: source organism: Vaccinia virus WR
Binary call on Kd with cut-off 1 nM: strictly below means 1, and equality or higher means 0.

>>> class_assignment("LMFKHLLHP")
0
>>> class_assignment("RTRGPLGIL")
1
>>> class_assignment("LTIACRVSL")
0
>>> class_assignment("MSRKFMQVY")
0
>>> class_assignment("RVHDTNATK")
0
>>> class_assignment("KTMMINPFM")
1
>>> class_assignment("LVKESMASL")
0
>>> class_assignment("HASPTLFNA")
0
>>> class_assignment("KVKNVHIGG")
1
>>> class_assignment("RMFGSKPTF")
0
>>> class_assignment("HLIFSYAFL")
0
>>> class_assignment("KVIVRNLNK")
0

---

biological target: HLA-A*26:01; test: IEDB peptide-MHC binding, purified MHC/direct/fluorescence; filed as Kd, often an IC50 or EC50 that approximates it; bounds were set here for any values at or beyond the usual limits of such assays; details: source organism: Vibrio vulnificus
pKd: −log10 of the molar value.
PROPERTY_MEASURED: pKd

>>> value_reported("DFPIFNQRY")
5.42

---

molecular target: HLA-A*29:02; assay: IEDB peptide-MHC binding, purified MHC/competitive/fluorescence; filed as Kd, often an IC50 or EC50 that approximates it; bounds were set here for any values at or beyond the usual limits of such assays; settings: source organism: Campylobacter jejuni subsp. jejuni NCTC 11168 = ATCC 700819
PROPERTY_MEASURED: Kd

>>> value_reported("FTFERSKIK")
"≥ 20 µM"

---

molecular target: HLA-B*07:02; assay: IEDB peptide-MHC binding, purified MHC/direct/fluorescence; filed as Kd, often an IC50 or EC50 that approximates it; bounds were set here for any values at or beyond the usual limits of such assays; details: source organism: Salmonella enterica subsp. enterica serovar Typhi
PROPERTY_MEASURED: Kd (nM)

>>> value_reported("VPQTDAGVT")
1890

---

target: HLA-A*02:01; assay: IEDB peptide-MHC binding, purified MHC/competitive/fluorescence; filed as Kd, often an IC50 or EC50 that approximates it; bounds were set here for any values at or beyond the usual limits of such assays; details: source organism: Toxoplasma gondii
PROPERTY_MEASURED: Kd

>>> value_reported("SVVEENTMA")
"≥ 20 µM"

---

Quick list: pKd per entry.
target: HLA-A*69:01; assay: IEDB peptide-MHC binding, purified MHC/direct/fluorescence; filed as Kd, often an IC50 or EC50 that approximates it; bounds were set here for any values at or beyond the usual limits of such assays; details: source organism: Vibrio parahaemolyticus
pKd: −log10 of the molar value.
PROPERTY_MEASURED: pKd

>>> value_reported("ISDPAFKVF")
"≤ 4.70"
>>> value_reported("DQFSIPIRY")
"≤ 4.70"

---

molecular target: HLA-B*51:01; test: IEDB peptide-MHC binding, purified MHC/competitive/radioactivity; filed as Kd, often an IC50 or EC50 that approximates it; bounds were set here for any values at or beyond the usual limits of such assays; conditions: source organism: Dengue virus 2 Jamaica/1409/1983
PROPERTY_MEASURED: Kd (nM)

>>> value_reported("FDFCEGTTVV")
2650
>>> value_reported("WPLNEAIMAV")
470

---

Quick list: Kd per entry.
biological target: HLA-B*44:02; experiment: IEDB peptide-MHC binding, purified MHC/competitive/radioactivity; filed as Kd, often an IC50 or EC50 that approximates it; bounds were set here for any values at or beyond the usual limits of such assays; settings: source organism: Dengue virus 2 Jamaica/1409/1983
PROPERTY_MEASURED: Kd

>>> value_reported("TEMGRLPTF")
"10 nM"
>>> value_reported("AEMEEALRG")
"4.65 nM"

---

target: HLA-A*03:01; assay: IEDB peptide-MHC binding, purified MHC/direct/fluorescence; filed as Kd, often an IC50 or EC50 that approximates it; bounds were set here for any values at or beyond the usual limits of such assays; settings: source organism: Bacillus anthracis
PROPERTY_MEASURED: Kd

>>> value_reported("DTVLFNAGL")
"≥ 20 µM"

---

biological target: HLA-B*15:17; experiment: IEDB peptide-MHC binding, purified MHC/direct/fluorescence; filed as Kd, often an IC50 or EC50 that approximates it; bounds were set here for any values at or beyond the usual limits of such assays; settings: source organism: Mammarenavirus lassaense
PROPERTY_MEASURED: Kd

>>> value_reported("LSVSSRCPI")
"4.1 nM"

---

biological target: HLA-A*69:01; assay: IEDB peptide-MHC binding, purified MHC/direct/fluorescence; filed as Kd, often an IC50 or EC50 that approximates it; bounds were set here for any values at or beyond the usual limits of such assays; details: source organism: Mycobacterium tuberculosis
pKd: −log10 of the molar value.
Quick list: pKd per entry.
PROPERTY_MEASURED: pKd

>>> value_reported("RIRSERPAF")
"≤ 4.70"
>>> value_reported("RGRIGRTYL")
"≤ 4.70"
>>> value_reported("VPRDRNGTF")
"≤ 4.70"
>>> value_reported("AVFDSFVER")
"≤ 4.70"
>>> value_reported("IPAPGLGAL")
6.62

---

molecular target: HLA-B*35:01; assay: IEDB peptide-MHC binding, purified MHC/competitive/radioactivity; filed as Kd, often an IC50 or EC50 that approximates it; bounds were set here for any values at or beyond the usual limits of such assays; conditions: source organism: Dengue virus 4 Philippines/H241/1956
pKd: −log10 of the molar value.
Quick list: pKd per entry.
PROPERTY_MEASURED: pKd

>>> value_reported("LPVYLMTLMK")
6.48
>>> value_reported("WAFCEVLTL")
6.24

---

molecular target: HLA-C*07:02; assay: IEDB peptide-MHC binding, purified MHC/direct/fluorescence; filed as Kd, often an IC50 or EC50 that approximates it; bounds were set here for any values at or beyond the usual limits of such assays; conditions: source organism: Homo sapiens
PROPERTY_MEASURED: Kd (nM)

>>> value_reported("MLYPRVWPY")
238

---

biological target: HLA-A*03:01; assay: IEDB peptide-MHC binding, purified MHC/competitive/radioactivity; filed as Kd, often an IC50 or EC50 that approximates it; bounds were set here for any values at or beyond the usual limits of such assays; settings: source organism: Dengue virus 2 Jamaica/1409/1983
PROPERTY_MEASURED: Kd (nM)

>>> value_reported("IMDLHPGAGK")
40.9
>>> value_reported("LMSGKGIGK")
75.2
>>> value_reported("GMSYSMCTGK")
30.8
>>> value_reported("ISQGAGWSLK")
199
>>> value_reported("VQTKPGLFK")
144

---

molecular target: HLA-A*02:19; assay: IEDB peptide-MHC binding, purified MHC/direct/fluorescence; filed as Kd, often an IC50 or EC50 that approximates it; bounds were set here for any values at or beyond the usual limits of such assays; conditions: source organism: Vibrio parahaemolyticus AQ3810
PROPERTY_MEASURED: Kd

>>> value_reported("EASTWLDIF")
"≥ 20 µM"

---

target: HLA-A*02:01; assay: IEDB peptide-MHC binding, purified MHC/direct/fluorescence; filed as Kd, often an IC50 or EC50 that approximates it; bounds were set here for any values at or beyond the usual limits of such assays; conditions: source organism: Pseudomonas aeruginosa
pKd: −log10 of the molar value.
Quick list: pKd per entry.
PROPERTY_MEASURED: pKd

>>> value_reported("LPQTRWQAV")
"≤ 4.70"
>>> value_reported("VVAVGGLAI")
"≤ 4.70"
